Target: T1, mouse PCSK9 (mouse, UniProt Q80W65 35-694, limits assumed)
T1 construct: also called mPCSK9; PCSK9 mouse
T1 sequence (Q80W65 35-694 limits assumed): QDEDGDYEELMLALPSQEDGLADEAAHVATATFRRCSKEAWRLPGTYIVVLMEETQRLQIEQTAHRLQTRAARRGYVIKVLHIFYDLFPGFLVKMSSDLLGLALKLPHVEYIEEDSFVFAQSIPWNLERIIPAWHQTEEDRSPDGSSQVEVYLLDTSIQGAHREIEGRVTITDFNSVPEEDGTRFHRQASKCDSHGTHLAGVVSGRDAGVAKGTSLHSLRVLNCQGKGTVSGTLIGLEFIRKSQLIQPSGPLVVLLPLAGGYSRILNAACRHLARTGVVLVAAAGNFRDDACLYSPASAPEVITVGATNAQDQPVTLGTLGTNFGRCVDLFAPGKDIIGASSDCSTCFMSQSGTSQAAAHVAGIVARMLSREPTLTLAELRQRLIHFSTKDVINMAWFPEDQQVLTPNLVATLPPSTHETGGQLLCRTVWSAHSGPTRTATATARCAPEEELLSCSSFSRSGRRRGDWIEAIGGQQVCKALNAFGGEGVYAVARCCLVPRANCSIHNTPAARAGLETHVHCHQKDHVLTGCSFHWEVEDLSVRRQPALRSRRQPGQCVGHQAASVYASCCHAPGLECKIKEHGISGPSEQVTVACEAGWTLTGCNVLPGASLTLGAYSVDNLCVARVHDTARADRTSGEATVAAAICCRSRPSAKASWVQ
Experiment: ProteOn SPR, captured antibody, pH 7.6;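 further: antibodies captured via anti-human Fc on a GLC sensor chip, PCSK9 binding sensorgrams fitted to a 1:1 Langmuir model giving on and off rates, with KD derived from them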
Quick reference for kon among some binders
# output: bare number, implied unit M⁻¹ s⁻¹

INSERT INTO results (binder, property_name, measure_unit, numeric_readout) VALUES
  ('CL-148219 (antibody, V domains shown, NLT motif in heavy chain framework 3 confirmed N-glycosylated by mass spectrometry, Human antibody, captured through anti-human Fc in the SPR assay) VH: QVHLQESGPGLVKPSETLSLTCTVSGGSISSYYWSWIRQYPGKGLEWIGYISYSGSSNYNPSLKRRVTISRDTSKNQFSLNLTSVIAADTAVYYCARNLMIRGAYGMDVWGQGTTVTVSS VL: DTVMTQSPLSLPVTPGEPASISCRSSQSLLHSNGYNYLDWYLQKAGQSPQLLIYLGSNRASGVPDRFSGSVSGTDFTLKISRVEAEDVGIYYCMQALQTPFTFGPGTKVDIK', 'kon', 'M⁻¹ s⁻¹', 791000),
  ('CL-148219 QLT mutant (antibody, V domains shown) VH: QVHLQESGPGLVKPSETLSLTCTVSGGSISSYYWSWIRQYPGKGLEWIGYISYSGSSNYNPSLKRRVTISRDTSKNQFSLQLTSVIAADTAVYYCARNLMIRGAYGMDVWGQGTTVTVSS VL: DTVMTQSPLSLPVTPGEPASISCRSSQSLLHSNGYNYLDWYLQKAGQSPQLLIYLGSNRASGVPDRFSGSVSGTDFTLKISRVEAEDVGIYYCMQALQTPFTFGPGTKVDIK', 'kon', 'M⁻¹ s⁻¹', 600000),
  ('CL-148489 (antibody, V domains shown, Human antibody with a kappa light chain) VH: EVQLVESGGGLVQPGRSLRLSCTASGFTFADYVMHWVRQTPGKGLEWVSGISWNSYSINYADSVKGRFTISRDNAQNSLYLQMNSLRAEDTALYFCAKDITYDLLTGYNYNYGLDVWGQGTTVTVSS VL: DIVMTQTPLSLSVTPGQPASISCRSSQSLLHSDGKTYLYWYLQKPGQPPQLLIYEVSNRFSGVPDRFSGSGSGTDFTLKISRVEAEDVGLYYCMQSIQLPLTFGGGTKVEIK', 'kon', 'M⁻¹ s⁻¹', 714000);

We next turn to a different binder, shown below.
Note to self: kon recorded for CL-274698 (antibody, V domains shown, Human antibody with a kappa light chain, derived from a PCSK9 knockout mouse) VH: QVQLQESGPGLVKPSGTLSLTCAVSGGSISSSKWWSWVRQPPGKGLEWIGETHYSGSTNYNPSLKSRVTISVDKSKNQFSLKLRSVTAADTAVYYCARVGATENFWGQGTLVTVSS VL: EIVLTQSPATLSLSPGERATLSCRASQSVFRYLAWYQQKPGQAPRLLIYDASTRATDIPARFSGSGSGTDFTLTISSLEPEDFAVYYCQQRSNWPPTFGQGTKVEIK was 941000

Origin of the recorded values: patent US20220049017A1
